Cited source: patent US20070231382A1

# method-notes: Plasma half life after oral administration
# Type: in vivo
# condition-details: human

>  <smiles-record>
Cc1ccc(Nc2c(F)cccc2Cl)c(CC(=O)O)c1

>  <half-life>
3 to 6 h

$$$$
